biological target: b-Raf (V600E) (Homo sapiens, UniProt P15056, V600E); assay: In vitro Raf activity determination (Alpha Screen, biotinylated kinase-dead MEK1 substrate), B-Raf; details: b-Raf (V600E) approximately 4 pM; ATP 10 μM; pre-incubation 60 minutes; reaction 3 hours at room temperature
Sequence (P15056 whole entry V600E): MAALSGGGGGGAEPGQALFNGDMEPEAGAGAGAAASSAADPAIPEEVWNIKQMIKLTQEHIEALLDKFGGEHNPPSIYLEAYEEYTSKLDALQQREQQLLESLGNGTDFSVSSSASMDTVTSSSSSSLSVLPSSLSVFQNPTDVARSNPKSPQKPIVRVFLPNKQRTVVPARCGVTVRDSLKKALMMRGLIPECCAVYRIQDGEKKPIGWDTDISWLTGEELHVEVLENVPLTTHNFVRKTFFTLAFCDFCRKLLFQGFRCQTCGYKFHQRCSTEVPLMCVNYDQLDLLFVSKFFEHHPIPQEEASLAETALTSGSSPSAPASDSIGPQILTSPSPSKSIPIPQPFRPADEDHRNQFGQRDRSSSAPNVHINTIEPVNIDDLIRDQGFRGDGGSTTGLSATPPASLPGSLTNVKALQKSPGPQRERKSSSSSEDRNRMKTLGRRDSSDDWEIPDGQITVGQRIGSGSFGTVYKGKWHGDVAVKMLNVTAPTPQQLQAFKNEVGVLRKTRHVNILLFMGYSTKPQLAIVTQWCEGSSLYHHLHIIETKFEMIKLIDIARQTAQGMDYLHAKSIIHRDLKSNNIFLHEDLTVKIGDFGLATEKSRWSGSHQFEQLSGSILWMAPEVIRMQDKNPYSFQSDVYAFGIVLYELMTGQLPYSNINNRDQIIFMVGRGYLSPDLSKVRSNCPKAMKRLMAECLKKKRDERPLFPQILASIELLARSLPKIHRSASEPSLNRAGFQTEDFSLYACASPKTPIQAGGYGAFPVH
property name: IC50 (nM)

Examples from the recorded data:
| compound | property name | recorded result |
| --- | --- | --- |
| Cc1ncc(NC(=O)c2cc(C(C)(F)F)ccn2)cc1-c1cnc(N2CC(C)(O)C2)c(C#N)c1 [Example 239] | IC50 | 6.38 |
| Cc1ccc(NC(=O)c2cc(C(F)(F)F)ccn2)cc1-c1cnc(N2CCOCC2)c(C#N)c1 [Example 222] | IC50 | 1 |
| Cc1ccn(-c2ncc(-c3cc(NC(=O)c4ccnc(C(C)(C)C#N)c4)cnc3C)cc2C#N)n1 [Example 83] | IC50 | 23.7 |
| Cc1ncc(NC(=O)c2cc(C(C)(C)N)cc(C(F)(F)F)c2)cc1-c1cnc(N2CC(C)(O)C2)c(C#N)c1 [Example 247] | IC50 | 30.7 |

a. CCn1cc(C(=O)Nc2cnc(C)c(-c3cnc(N4CCOCC4)c(C#N)c3)c2)cc(C(F)(F)F)c1=O [Example 135]
b. Cc1ccc(NC(=O)c2ccnc(C(C)(C)O)c2)cc1-c1cnc(NC2CCOCC2)c(C#N)c1 [Example 168]
c. Cc1ccc(NC(=O)c2cccc(C(F)F)c2)cc1-c1cnc(N2CCNCC2)c(C#N)c1 [Example 163]
q: Let's sort these by IC50, smallest first. Go ahead? List the labels in the requested order.
a: c, b, a

1. Cc1ncc(NC(=O)c2ccnc(C(C)C)c2)cc1-c1cnc(N2CCOCC2)c(C#N)c1 [Example 133]
2. Cc1ncc(NC(=O)c2cccc(C(F)(F)F)c2)cc1-c1cnc(N2CC(O)C2)c(C#N)c1 [Example 67]
3. COCCNc1ncc(-c2cc(NC(=O)c3cnnc(C(C)(C)C#N)c3)ccc2C)cc1C#N [Example 201]
q: Hi! Can you put these in order of IC50, lowest number first? Dear reader, please state the labels in the requested order.
a: 2, 1, 3
(2: 1.24 nM, 1: 2.05 nM, 3: 3.04 nM)

I. Cc1ccc(NC(=O)c2cc(C3CC3)on2)cc1-c1cnc(N(C)C)c(C#N)c1 [Example 259]
II. Cc1ccc(NC(=O)c2ccnc(C(C)(C)F)c2)cc1-c1cnc(N2CCNCC2)c(C#N)c1 [Example 164]
q: Parameter check: reported IC50 is higher for which label, I or II ? Respond with the label that goes with your answer.
a: I
(I: 3.79 nM, II: 0.683 nM)

----------
Target: C-RAF (Homo sapiens, UniProt P04049, Y340E/Y341E)
Construct: His tag (implied by nickel chromatography) (cleaved yes); StrepII tag (cleaved yes); MEK1 substrate from E. coli
Sequence (P04049 whole entry Y340E/Y341E): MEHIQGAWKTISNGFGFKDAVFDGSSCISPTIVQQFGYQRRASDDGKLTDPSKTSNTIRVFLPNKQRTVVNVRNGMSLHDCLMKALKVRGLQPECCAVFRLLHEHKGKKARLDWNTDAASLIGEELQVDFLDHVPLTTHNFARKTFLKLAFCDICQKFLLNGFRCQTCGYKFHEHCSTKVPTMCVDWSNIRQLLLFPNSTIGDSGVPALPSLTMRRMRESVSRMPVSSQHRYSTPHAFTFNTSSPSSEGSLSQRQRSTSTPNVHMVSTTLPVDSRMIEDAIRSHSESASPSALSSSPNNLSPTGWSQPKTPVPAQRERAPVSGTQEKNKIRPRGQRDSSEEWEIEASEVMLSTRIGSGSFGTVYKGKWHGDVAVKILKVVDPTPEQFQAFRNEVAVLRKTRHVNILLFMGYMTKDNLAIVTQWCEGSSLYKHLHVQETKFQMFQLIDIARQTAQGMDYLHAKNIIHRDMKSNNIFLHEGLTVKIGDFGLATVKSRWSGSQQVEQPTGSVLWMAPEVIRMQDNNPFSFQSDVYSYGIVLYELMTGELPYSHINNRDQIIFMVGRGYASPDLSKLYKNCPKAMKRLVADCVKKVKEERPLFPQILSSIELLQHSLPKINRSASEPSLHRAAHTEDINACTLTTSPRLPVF
Sequence (P63104 whole entry partner): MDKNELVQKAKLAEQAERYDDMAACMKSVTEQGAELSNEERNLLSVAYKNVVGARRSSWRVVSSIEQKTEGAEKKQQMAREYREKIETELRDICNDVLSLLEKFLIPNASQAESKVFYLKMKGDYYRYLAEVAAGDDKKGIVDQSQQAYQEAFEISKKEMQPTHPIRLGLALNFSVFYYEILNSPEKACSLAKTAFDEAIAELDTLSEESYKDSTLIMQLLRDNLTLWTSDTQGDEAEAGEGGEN
Experiment: In vitro Raf activity determination (Alpha Screen, biotinylated kinase-dead MEK1 substrate), C-Raf
Details: c-Raf approximately 4 nM; ATP 1 μM; pre-incubation 60 minutes; reaction 1 hour at room temperature
Description: CRAF cDNA was subcloned as full length protein, with Y340E and Y341E activating mutations, into a baculovirus expression vector for Sf9 insect cell expression. h14-3-3 zeta cDNA was subcloned into a baculovirus expression vector for SF9 insect cell expression. Sf9 cells co-expressing both proteins were lysed and subjected to immobilized nickel chromatography and eluted with Imidazole. A second column (StrepII binding column) was used and eluted with desthiobiotin. […]
property name: IC50 (nM)

| compound | unit of measurement | IC50 |
| --- | --- | --- |
| Cc1ncc(NC(=O)c2ccnc(C(C)(C)C#N)c2)cc1-c1cnc(N2[C@@H]3CC[C@H]2COC3)c(C#N)c1 [Example 91] | nM | 1.01 |
| Cc1ncc(NC(=O)c2cnnc(C(F)(F)F)c2)cc1-c1cnc(C2CCOCC2)c(C#N)c1 [Example 144] | nM | 12.6 |

I. Cc1ccc(NC(=O)c2cn(C)nc2C)cc1-c1cnc(N(C)C)c(C#N)c1 [Example 252]
II. Cc1ncc(NC(=O)c2ccnc(C3(C#N)CC3)c2)cc1-c1cnc(N2CC(C)(O)C2)c(C#N)c1 [Example 189]
q: Form field 'greater IC50' accepts I or II ; which applies? Output the label that corresponds to your choice.
a: I

----------
molecular target: C-RAF (Homo sapiens, UniProt P04049, Y340E/Y341E); construct: His tag (implied by nickel chromatography) (cleaved yes); StrepII tag (cleaved yes); made in house; host or cells: Sf9 insect cells (baculovirus), CRAF and h14-3-3 zeta co-expressed; MEK1 substrate from E. coli; test: In vitro Raf activity determination (Alpha Screen, biotinylated kinase-dead MEK1 substrate), C-Raf; type: biochemical; settings: c-Raf approximately 4 nM; ATP 1 μM; pre-incubation 60 minutes; reaction 1 hour at room temperature
pIC50: −log10 of the molar value.
property name: pIC50

# example entries with known answers
| compound | property name | recorded result |
| --- | --- | --- |
| Cc1ccc(NC(=O)c2ccnc(C(F)F)c2)cc1-c1cnc(N2CC(C)(O)C2)c(C#N)c1 | pIC50 | 9.16 |
| COCCNc1ncc(-c2cc(NC(=O)c3cnnc(C(C)(C)C#N)c3)cnc2C)cc1C#N | pIC50 | 8.32 |
| Cc1ncc(NC(=O)c2ccnc(C(C)(C)C#N)c2)cc1-c1cnc(-c2ccnnc2)c(C#N)c1 | pIC50 | 7.94 |
| Cc1ccc(NC(=O)c2ccnc(C(F)(F)F)c2)cc1-c1cnc(C(C)C)c(C#N)c1 | pIC50 | 9.51 |
| Cc1ccc(NC(=O)c2cnnc(C(F)(F)F)c2)cc1-c1cnc(N2CC(C)(O)C2)c(C#N)c1 | pIC50 | 8.75 |
| Cc1ccc(NC(=O)c2ccnc(C(F)(F)F)c2)cc1-c1cnc(N2CC(O)C2)c(C#N)c1 | pIC50 | 9.92 |

a. COc1ncc(-c2cc(NC(=O)c3ccnc(C(C)(C)C#N)c3)ccc2C)cc1C#N
b. Cc1ncc(NC(=O)c2ccnc(C(C)(C)C#N)c2)cc1-c1cnc(-c2c(C)nn(C)c2C)c(C#N)c1
q: Between a and b , whose measured pIC50 reads higher? Answer by quoting the chosen item's label.
a: a

----------
biological target: b-Raf (V600E) (Homo sapiens, UniProt P15056, V600E); assay: In vitro Raf activity determination (Alpha Screen, biotinylated kinase-dead MEK1 substrate), B-Raf; conditions: b-Raf (V600E) approximately 4 pM; ATP 10 μM; pre-incubation 60 minutes; reaction 3 hours at room temperature
property name: IC50 (nM)

Consider the reported IC50 for these molecules:
| smiles entry | IC50 / nM |
| --- | --- |
| Cc1ccc(NC(=O)c2cnnc(C(C)(C)F)c2)cc1-c1cnc(N2CC(C)(O)C2)c(C#N)c1 | 1.53 |
| Cc1ccc(NC(=O)c2ccnc(C(C)(C)C#N)c2)cc1-c1cnc(-n2ccc(=O)cc2)c(C#N)c1 | 34.6 |

1. Cc1ccc(NC(=O)c2ccnc(C(C)(C)C#N)c2)cc1-c1cnc(-c2cnn(C)c2)c(C#N)c1
2. Cc1ccc(NC(=O)c2cccc(S(C)(=O)=O)c2)cc1-c1cnc(C2CCOCC2)c(C#N)c1
3. Cc1ncc(NC(=O)c2ccnc(C(C)(C)C#N)c2)cc1-c1cnc(NC2CCOCC2)c(C#N)c1
4. Cc1ccc(NC(=O)c2cn(C)nc2C)cc1-c1cnc(N(C)C)c(C#N)c1
q: Hey, quick one: sort these by IC50, largest value first please. Answer format: list of labels, ordered as asked.
a: 4, 3, 2, 1

A. Cc1ccc(NC(=O)c2cc(C(C)(C)N)cc(C(F)(F)F)c2)cc1-c1cnc(N2CC(C)(O)C2)c(C#N)c1
B. Cc1ncc(NC(=O)c2ccnc(C(C)(C)C#N)c2)cc1-c1cnc(N2CCO[C@@H](C)C2)c(C#N)c1
q: Short answer wanted: higher IC50, A or B ? Kindly state the label of the option you pick.
a: A

----------
Biological target: b-Raf (V600E) (Homo sapiens, UniProt P15056, V600E)
Assay: In vitro Raf activity determination (Alpha Screen, biotinylated kinase-dead MEK1 substrate), B-Raf
Details: b-Raf (V600E) approximately 4 pM; ATP 10 μM; pre-incubation 60 minutes; reaction 3 hours at room temperature
Text: Full length MEK1 with an inactivating K97R ATP binding site mutation is utilized as a RAF substrate. The MEK1 cDNA was subcloned with an N-terminal (his)6 tag into a vector for E. Coli expression. The MEK1 substrate was purified from E. Coli lysate by nickel affinity chromatography followed by anion exchange. The final MEK1 preparation was biotinylated (Pierce EZ-Link Sulfo-NHS-LC-Biotin) and concentrated. […]
pIC50: −log10 of the molar value.
property name: pIC50

Below: 2 molecules and their reported pIC50.
| molecule | target or test system | pIC50 |
| --- | --- | --- |
| Cc1ccc(C(=O)Nc2cccc(C(F)(F)F)c2)cc1-c1cncc(C#N)c1 [Example 27] | b-Raf (V600E) (Homo sapiens, UniProt P15056, V600E) | 7.68 |
| Cc1ncc(NC(=O)c2cccc(C(F)(F)F)c2)cc1-c1cnc(N2CCS(=O)(=O)CC2)c(C#N)c1 [Example 85] | b-Raf (V600E) (Homo sapiens, UniProt P15056, V600E) | 8.88 |

a. Cc1ccc(NC(=O)c2ccnc(C3CC3)c2)cc1-c1cnc(N2CCNCC2)c(C#N)c1 [Example 158]
b. Cc1ncc(NC(=O)c2cnnc(C(F)(F)F)c2)cc1-c1cnc(N2CCOCC2)c(C#N)c1 [Example 142]
q: Larger number for pIC50: a , or b ? Your answer should be the label of the entry you select.
a: a
(a: 8.96, b: 8.55)
